Here, each record is paired with measured FACS GeoMean-neg data.
Biological target: T1, rat PRLR on Nb2-11 rat lymphoma cells (rat, UniProt P05710 20-610)
T1 construct: whole, on cells
T1 sequence (looked up): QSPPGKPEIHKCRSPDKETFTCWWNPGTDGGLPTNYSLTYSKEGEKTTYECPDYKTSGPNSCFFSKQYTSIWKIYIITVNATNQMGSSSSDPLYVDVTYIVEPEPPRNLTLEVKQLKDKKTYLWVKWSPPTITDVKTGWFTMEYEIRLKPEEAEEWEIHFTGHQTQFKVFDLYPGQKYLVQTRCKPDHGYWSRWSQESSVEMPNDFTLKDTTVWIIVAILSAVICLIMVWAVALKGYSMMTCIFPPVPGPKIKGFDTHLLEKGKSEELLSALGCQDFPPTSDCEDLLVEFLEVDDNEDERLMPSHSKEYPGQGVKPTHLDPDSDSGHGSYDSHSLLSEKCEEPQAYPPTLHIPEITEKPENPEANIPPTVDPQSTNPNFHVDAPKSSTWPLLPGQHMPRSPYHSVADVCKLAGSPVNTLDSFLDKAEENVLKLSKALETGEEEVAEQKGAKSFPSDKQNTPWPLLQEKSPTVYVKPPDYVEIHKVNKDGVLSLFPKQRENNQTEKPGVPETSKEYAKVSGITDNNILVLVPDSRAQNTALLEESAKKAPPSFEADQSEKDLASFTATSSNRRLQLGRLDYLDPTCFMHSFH
Experiment: FACS Nb2-11 20 ug/mL
Enter the number alone.

Some binders with known FACS GeoMean-neg results, for comparison:
- BINDER: "Ab9 (antibody, V domains shown, murine monoclonal, isotype G2b; also called murine Ab9) VH: EVQLQQSGPELVRPGASVKISCKASGYSFTDYNMHWVKQSHGKSLEWIGYIYPYNGGAGYNQKFKSKATMNVGISSSTAYMELRSLTSEDSAVYYCARGDGNYVGDMDYWGQGTSVTVSS VL: DIQMTQSPASLSASVGETVTITCRASENIYSYLAWYQQKQGKSPQLLVYNAKTLAEGVPSRFSGSGSGTQFSLKINSLQPEDFGSYYCQHHSGTPFTFGSGTKLEIK"
  VALUE REPORTED: 0
- BINDER: "Ab13 (antibody, V domains shown, murine monoclonal, isotype G2a; also called murine Ab13) VH: QVQLQQPGAELVRPGTSVKLSCKASGYTFTSFWMHWVKQRPGQGLEWIGVIDPSDSHTNYNQKFKGKATLTVNTSSSTAYMHLSSLTSEDSAVYYCARGDYSNWFTYWGQGTLVTVSA VL: DVVMTQTPFSLPVSLGDQASISCRSSQSLVHSNGNTYLHWYLQKPGQSPKLLIYKVSNRFSGVPDRFSGSGSGTDFTLKISRVEAEDLELYFCSQSTHVPWTFGGGTKLEIK"
  VALUE REPORTED: 60

We next turn to a different binder, shown below.
// field: FACS GeoMean-neg; key: Ab11 (antibody, V domains shown, murine monoclonal, isotype G1; also called murine Ab11) VH: EVKLVESGGGLVQPGGSLKLSCAASGFTFSDYYMFWVRQTPEKSLEWVAYISNGGGSTYYPDTVKGRFTISRDNAKNTLYLQMSRLKSEDTAMYYCSRQLFYYGSRGAMGYWGQGTSVTVSS VL: DVLMTQTPLSLPVSLGDQASISCRSSQSIVHSNGNTYLEWYLQKPGQSPKLLIYKVSNRFSGVPDRFSGSGSGTDFTLKISRVEAEDLGVYYCFQGSHVPFTFGSGTKLEIK ; value = 94
